- Test system: NCI-H23
- assay.procedure: NCI tumour cell line growth inhibition, 48 h
Active and inactive are the calls of the source. Rule as the data show it: active = GI50 up to about 1.1 µM and inactive = higher.
Assignment: determine reported GI50 for the given compounds.

A selection of reference data follows.
>>> print(df.to_string())
                                   compound  target_system             observed
0     CC(C)/C(Cl)=N/OC(=O)Nc1ccc(Cl)c(Cl)c1        NCI-H23   15.3 µM (inactive)
1  C[C@]12CCC(=O)C=C1CC[C@@H]1C2CC[C@@]2(C)C1CC[C@@H]2OC(=O)C12OC1CCC2=O (stereo not given in full)        NCI-H23   18.8 µM (inactive)
2  COc1ccc(-c2oc3cc(OC)c(OC)c(OC)c3c(=O)c2OC)cc1OC        NCI-H23  > 100 µM (inactive)
3  N#CC1C(=O)SC2c3ccccc3C(=O)c3ccccc3C12 (stereo not given)        NCI-H23   > 10 µM (inactive)

From here, focus on the item given below.
Qu. Entry COc1cc2cc3c4c(cc(OC)c(OC)c4c2cc1OC)CCN3 : reported GI50 = ?
Ans. 92 µM (inactive)

====

- System: MDA-N
- assay.procedure: NCI tumour cell line growth inhibition, 48 h
Activity calls are given as the source filed them. No stated cut-off is given here; in the data, active = GI50 up to about 1.1 µM and inactive = higher.
Please state which outcome applies, choosing from active, inactive

compound	label
CC(O)CCCCC(O)CCC[C@H](O)[C@H]1CCC([C@H]2CCC([C@@H](O)CCCCCCCCCCCCC3=C[C@H](C)OC3=O)O2)O1 (stereo partly specified)	inactive

Qu. Recorded test call requested for CC(C)(C)c1nc2c(o1)C(=O)c1ccccc1C2=O
Ans. active

Qu. Recorded test call requested for Cc1cc(N(CCC#N)CCC#N)ccc1C(/N=N/c1ccc(Cl)cc1)=N\NC(=O)c1cc(Cl)ccc1O
Ans. inactive

Qu. Recorded test call requested for Cn1c2cn[nH]c(=O)c2c2ccc3ccccc3c21
Ans. inactive

Qu. Recorded test call requested for Cc1cc(S(=O)(=O)[N-]/C(=N/S(=O)(=O)c2cc(Cl)sc2Cl)[n+]2ccc(N(C)C)cc2)c(S)cc1Cl
Ans. inactive

Qu. Recorded test call requested for CC(C)CC(N)C(=O)NC(C(=O)NC(CCCNC(=N)N)C(=O)NC(CS)C(=O)NC1CSCC(C(=O)NC(Cc2ccccc2)C(=O)NC(C(=O)NC(CCCNC(=N)N)C(=O)O)C(C)C)NC(=O)C2CCCN2C(=O)C(CCCCN)NC(=O)C2CCCN2C(=O)C2CCCN2C(=O)C(Cc2ccc(O)cc2)NC(=O)C(CO)NC(=O)C(CCCCN)NC(=O)C(C(C)O)NC(=O)C(Cc2c[nH]c3ccccc23)NC1=O)C(C)C (stereo unspecified)
Ans. inactive

Qu. Recorded test call requested for CN(CCc1ccccn1)c1ccc2c(c1)C(=O)c1ccccc1-2
Ans. inactive

Qu. Recorded test call requested for CCN1CCCCC(=N\O)/C(=N/O)CCCC1
Ans. inactive

Qu. Recorded test call requested for NCCCCNC1(c2cc3ccccc3s2)CCCCC1
Ans. inactive

Qu. Recorded test call requested for CC(=O)Oc1ccc2c(c1OC(C)=O)CCC1C2=CC[C@]2(C)C(=O)CCC12 (stereo partly specified)
Ans. inactive

Qu. Recorded test call requested for S=C(Nc1cccc(C2(N3CCCCC3)CCCCC2)c1)Nc1cccc(C2(N3CCCCC3)CCCCC2)c1
Ans. inactive
